Origin of values: patent US20220213213A1

Reported values of relative MFI normalized to full-length human CD137 for individual entries
- tested-system: human/mouse CD137 chimera 1552 (human/mouse chimera) (UniProt Q07011)
- assay-text: flow cytometry, transfected 293-F cells
Reply with the value as a number alone.

* 1618/1619 (antibody, V domains shown) VH: EVQLLESGGGLVQPGGSLRLSCAASGFTFSYGSMYWVRQAPGKGLEWVSSISSGSGSTYYADSVKGRFTISRDNSKNTLYLQMNSLRAEDTAVYYCARSSYYGSYYSIDYWGQGTLVTVSS VL: DIQMTQSPSSLSASVGDRVTITCRASQSISSYLNWYQQKPGKAPKLLIYAASSLQSGVPSRFSGSGSGTDFTLTISSLQPEDFATYYCQQYYDNLPTFGQGTKLEIK | 1.2
* 1200/1201 (antibody, V domains shown) VH: EVQLLESGGGLVQPGGSLRLSCAASGFTFSSYAMSWVRQAPGKGLEWVSGISGGGGGTYYADSVKGRFTISRDNSKNTLYLQMNSLRAEDTAVYYCARDVAYFDYWGQGTLVTVSS VL: DIQMTQSPSSLSASVGDRVTITCRASQSISSYLNWYQQKPGKAPKLLIYAASSLQSGVPSRFSGSGSGTDFTLTISSLQPEDFATYYCQQYYIPHTFGQGTKLEIK | 0.05
* 1202/1203 (antibody, V domains shown) VH: EVQLLESGGGLVQPGGSLRLSCAASGFTFYGSSMSWVRQAPGKGLEWVSSIYYGSSGTYYADSVKGRFTISRDNSKNTLYLQMNSLRAEDTAVYYCARSYYGYFDYWGQGTLVTVSS VL: DIQMTQSPSSLSASVGDRVTITCRASQSISSYLNWYQQKPGKAPKLLIYAASSLQSGVPSRFSGSGSGTDFTLTISSLQPEDFATYYCQQYYTVVPFTFGQGTKLEIK | 0.06

Problem: Give relative MFI normalized to full-length human CD137 for the following binder: 1204/1205 (antibody, V domains shown) VH: EVQLLESGGGLVQPGGSLRLSCAASGFTFSSYYMGWVRQAPGKGLEWVSGIGSYYGYTGYADSVKGRFTISRDNSKNTLYLQMNSLRAEDTAVYYCARAYYDYNYYYAYFDYWGQGTLVTVSS VL: DIQMTQSPSSLSASVGDRVTITCRASQSISSYLNWYQQKPGKAPKLLIYAASSLQSGVPSRFSGSGSGTDFTLTISSLQPEDFATYYCQQSVPHYPFTFGQGTKLEIK
Solution: 0.13

Problem: Find the measured relative MFI normalized to full-length human CD137 of 1620/1621 (antibody, V domains shown) VH: EVQLLESGGGLVQPGGSLRLSCAASGFTFSGYYMYWVRQAPGKGLEWVSGISSSGSYTYYADSVKGRFTISRDNSKNTLYLQMNSLRAEDTAVYYCARSVGPYFDYWGQGTLVTVSS VL: DIQMTQSPSSLSASVGDRVTITCRASQSISSYLNWYQQKPGKAPKLLIYAASSLQSGVPSRFSGSGSGTDFTLTISSLQPEDFATYYCQQGVGPYTFGQGTKLEIK and report it.
Solution: 0.18

Problem: Answer with the recorded relative MFI normalized to full-length human CD137 of 1626/1627 (antibody, V domains shown) VH: EVQLLESGGGLVQPGGSLRLSCAASGFTFGGYSMYWVRQAPGKGLEWVSSIGGYYYSTYYADSVKGRFTISRDNSKNTLYLQMNSLRAEDTAVYYCARSYYGSIDYWGQGTLVTVSS VL: DIQMTQSPSSLSASVGDRVTITCRASQSISSYLNWYQQKPGKAPKLLIYAASSLQSGVPSRFSGSGSGTDFTLTISSLQPEDFATYYCQQGTGYGPLTFGQGTKLEIK only.
Solution: 0.11
